meta.source: a melting point compilation (Tetko et al.)

quantity.measured: melting point (°C)
Give bare numbers, in °C.

Some solved entries appear below for comparison.
Nc1cc2c(cc1Cl)C(=O)c1ccccc1C2=O; 282
C=C1CC2C3CCC4=CC(=O)C=CC4(C)C3C(O)CC2(C)C1(O)C(=O)CO (configuration not stated); 234

Hi! Can you tell me melting point for each of these compounds?
1. CCCCCCCCOC(=O)CCCCC(=O)OCCCCCCCC
2. CCOC(=O)C(C)Oc1ccc(Oc2cnc3cc(Cl)ccc3n2)cc1 (configuration not stated)
3. Cc1ccc(C(=CCN2CCCC2)c2ccccn2)cc1
4. Clc1cccc2c(Cl)cccc12

Out:
[-70, 92, 60, 107]

Provide each entry's melting point from the list below.
1. CC(C)(C)OC(=O)N1CC(C#N)C1
2. CC(C)N(C(=O)C(C(F)(F)F)C(F)(F)F)C(C)C

Out:
[70, 53]

###

quantity.measured: melting point (°C)
Answers are plain numbers, in °C.

Worked cases, answers included:
CCOC(=O)C1C(=N)Oc2c(c(=O)oc3ccccc23)C1c1ccc(Br)cc1 (configuration not stated); 192
CC(=O)Oc1cccc(I)c1; 38

I have 5 molecules here; please give me melting point for each one.
1. Nc1ccccc1C(=O)OCC=Cc1ccccc1
2. CC(=NNC(N)=O)c1ccncc1
3. CC(C)(C)N(NC(=O)c1ccccc1)C(=O)c1c(F)cccc1F
4. COc1ccc2c(C(=O)c3ccc(Cl)cc3)c(C)n(CC(=O)O)c2c1
5. Fc1c(F)c(F)c(CBr)c(F)c1F

Out:
61
218
194
242
19

###

Could you please report measured melting point for the items listed next?
One number for each entry, in °C.

Use the examples below as a reference point.
CC(=O)c1c(O)nc2cc3nc(O)c(C(C)=O)c(C)c3cc2c1C; 310
O=C(C1=NOC2C(=O)N(c3ccc(Cl)cc3)C(=O)C12)c1ccc(Cl)cc1 (stereo unspecified); 152
O=C(CCCl)c1ccc(F)cc1; 47.5
CCCC(C)C(=O)Nc1ccc(C)c(Cl)c1 (stereo unspecified); 85.5
CC1=CCC/C1=N\Nc1ccc([N+](=O)[O-])cc1[N+](=O)[O-]; 222
Fc1ccc(F)c(F)c1F; -42
CCn1nc(C)cc1C(=O)O; 139
C=C(C)C(=O)OCC(C)C; -37

Required: melting point, one value per compound below.
1. Cc1ccn(-c2ccccc2)n1
2. FC(F)(F)c1cc(Br)ccc1Br
3. C[Si](C)(C)C1=CC2CCCCC2C1=O (stereo unspecified)
4. CC(C)c1cccc(C(C)C)c1N

Out:
37
49
59
-45

###

quantity.measured: melting point (°C)
Give bare numbers, in °C.

CNCC(O)c1cccc(NS(C)(=O)=O)c1 (stereo unspecified); 159
Fc1cnccc1I; 88
Nc1ncnc2c1ncn2C1OC(COP(=O)(O)O)C(O)C1O (stereo unspecified); 213
O=C(O)c1cccc2cccnc12; 187
NC(=O)c1ccc(C(=O)O)cc1; 300
Cc1ccc(N=Nc2cc(C(C)C)c(N=Nc3ccc(C)cc3)cc2C)cc1; 140
O=C1C(c2ccc(C3=[N+]([O-])c4cc([N+](=O)[O-])ccc4C3=O)cc2)=[N+]([O-])c2cc([N+](=O)[O-])ccc21; 294
ClCOCCl; -41.5

Items follow; give melting point for each.
1. CC(C)=C1C2CCC1c1ccccc12
2. NC(=O)NN=CC(=O)c1ccc(C(=O)C=NNC(N)=O)c([N+](=O)[O-])c1

Out:
90
241
